test system: Staphylococcus aureus MW2 (mecA+); assay: normalized DsRed fluorescence (growth of mecA+ strain) (fraction of control range); higher = more growth of mecA+ strain; settings: compound concentration: 150 uM; cefoxitin: subinhibitory; fluorescent label: DsRed
Counter-ions that a name gives are not always drawn.
Please mark 1 if the recorded normalized DsRed fluorescence is equal to or greater than 0.7, and 0 if it falls below.

Input: Could you verify whether the entry NC(=O)N/N=C/c1ccc([N+](=O)[O-])o1 shows normalized DsRed fluorescence of no less than 0.7?
Output: 0

Input: Quick check: does COc1ccccc1OCC(O)CN1CCN(CC(=O)Nc2c(C)cccc2C)CC1 (stereo not given) have normalized DsRed fluorescence greater than or equal to 0.7?
Output: 0

Input: Has Nc1cc(N2CCCCC2)nc(N)[n+]1[O-] a recorded normalized DsRed fluorescence greater than or equal to 0.7?
Output: 1

Input: Assess whether reported normalized DsRed fluorescence for CN1CCc2cccc3c2[C@H]1Cc1ccc(O)c(O)c1-3 sits at 0.7 or higher.
Output: 0

Input: Is the recorded value of normalized DsRed fluorescence equal to or greater than 0.7 for this compound? CO[C@H]1C(=O)[C@]2(C)[C@@H](OC)C[C@H]3OC[C@@]3(OC(C)=O)[C@H]2[C@H](OC(=O)c2ccccc2)[C@]2(O)C[C@H](OC(=O)[C@H](O)[C@@H](NC(=O)OC(C)(C)C)c3ccccc3)C(C)=C1C2(C)C
Output: 1

Input: Is the recorded value of normalized DsRed fluorescence equal to or greater than 0.7 for this compound? COc1cc2nc(N3CCN(C(=O)c4ccco4)CC3)nc(N)c2cc1OC
Output: 1

Input: # check: normalized DsRed fluorescence of CC(C(=O)O)c1ccc(-c2ccccc2)c(F)c1 (stereo not given) is greater than or equal to 0.7
Output: 0

Input: Hi, just wondering whether CC(C)Oc1ccc2c(=O)c(-c3ccccc3)coc2c1 shows normalized DsRed fluorescence of 0.7 or higher.
Output: 0

Input: Could you tell me if the measured normalized DsRed fluorescence of CCCCC(=O)O[C@]1(C(=O)CO)CC[C@H]2[C@@H]3CCC4=CC(=O)CC[C@]4(C)[C@H]3[C@@H](O)C[C@@]21C reaches 0.7 or more?
Output: 0

Input: Does the compound CC1=C(C(=O)O)N2C(=O)[C@@H](NC(=O)[C@H](N)c3ccccc3)[C@H]2SC1 have recorded normalized DsRed fluorescence that is 0.7 or more?
Output: 1

Input: Answer whether normalized DsRed fluorescence of CC(=O)O[C@@]12CO[C@@H]1C[C@H](O)[C@@]1(C)C(=O)[C@H](O)C3=C(C)[C@@H](OC(=O)[C@H](O)[C@@H](NC(=O)OC(C)(C)C)c4ccccc4)C[C@@](O)([C@@H](OC(=O)c4ccccc4)[C@H]21)C3(C)C is greater than or equal to 0.7.
Output: 1

Input: For this compound, is measured normalized DsRed fluorescence 0.7 or higher? O=C1CN(/N=C/c2ccc([N+](=O)[O-])o2)C(=O)N1
Output: 0

Input: Hi, just wondering whether COc1cc2c(cc1OC)CC(=O)N(CCCN(C)C[C@H]1Cc3cc(OC)c(OC)cc31)CC2 [Ivabradine HCl (Procoralan)] shows normalized DsRed fluorescence of 0.7 or higher.
Output: 0

Input: Determine whether measured normalized DsRed fluorescence meets or exceeds 0.7 for O=C1c2ccccc2C(=O)C1c1ccccc1 [Phenindione (Rectadione)]
Output: 0

Input: Confirm if normalized DsRed fluorescence reported for the compound CC[C@H]1OC(=O)[C@H](C)[C@@H](O[C@H]2C[C@@](C)(OC)[C@@H](O)[C@H](C)O2)[C@H](C)[C@@H](O[C@@H]2O[C@H](C)C[C@H](N(C)C)[C@H]2O)[C@](C)(OC)C[C@@H](C)C(=O)[C@H](C)[C@@H](O)[C@]1(C)O is 0.7 or above.
Output: 1

Input: Dear colleague, could you confirm whether CNC(=C[N+](=O)[O-])NCCSCc1csc(CN(C)C)n1 has normalized DsRed fluorescence at or above 0.7?
Output: 1

Input: Is reported normalized DsRed fluorescence greater than or equal to 0.7 here: Nc1nnc(-c2cccc(Cl)c2Cl)c(N)n1
Output: 1

Input: Check this compound for normalized DsRed fluorescence at or above 0.7: CCOc1cc2ncc(C#N)c(Nc3ccc(OCc4ccccn4)c(Cl)c3)c2cc1NC(=O)/C=C/CN(C)C
Output: 1

Input: Can CN1CCCC(n2nc(Cc3ccc(Cl)cc3)c3ccccc3c2=O)CC1 (stereo not given) [Azelastine hydrochloride (Astelin)] be said to have normalized DsRed fluorescence at or above 0.7?
Output: 1

Input: For this compound, is measured normalized DsRed fluorescence 0.7 or higher? CC(=O)Nc1cccc(-n2c(=O)n(C3CC3)c(=O)c3c(Nc4ccc(I)cc4F)n(C)c(=O)c(C)c32)c1
Output: 1

Input: Is normalized DsRed fluorescence at least 0.7? Consider Cc1ncc(C[n+]2csc(CCO)c2C)c(N)n1
Output: 1

Input: API: above_or_equal(metric=normalized DsRed fluorescence, cutoff=0.7) for item C#Cc1cccc(Nc2ncnc3cc4c(cc23)OCCOCCOCCO4)c1
Output: 0

Input: Is reported normalized DsRed fluorescence greater than or equal to 0.7 here: CN(C)CCC=C1c2ccccc2C=Cc2ccccc21
Output: 1

Input: # check: normalized DsRed fluorescence of O=S(=O)(O)CCS is greater than or equal to 0.7
Output: 0

Input: # check: normalized DsRed fluorescence of Cc1cc(-c2ccccc2)nnc1NCCN1CCOCC1 is greater than or equal to 0.7
Output: 0

Input: Does normalized DsRed fluorescence meet or surpass 0.7 for CNC(=C[N+](=O)[O-])NCCSCc1ccc(CN(C)C)o1 ?
Output: 1

Input: normalized DsRed fluorescence >= 0.7 for C[C@@H]1O[C@@H](OC[C@H]2O[C@@H](Oc3c(-c4ccc(O)c(O)c4)oc4cc(O)cc(O)c4c3=O)[C@H](O)[C@@H](O)[C@@H]2O)[C@H](O)[C@H](O)[C@H]1O [Rutin (Rutoside)] ?
Output: 1

Input: Test whether the compound O=C(C1CCCCC1)N1CC(=O)N2CCc3ccccc3C2C1 (stereo not given) records normalized DsRed fluorescence of 0.7 or higher.
Output: 0

Input: Reported normalized DsRed fluorescence at or above 0.7? CC(CN1c2ccccc2Sc2ccccc21)N(C)C (stereo not given)
Output: 1

Input: Does normalized DsRed fluorescence meet or surpass 0.7 for c1ccc2c(CC3=NCCN3)cccc2c1 ?
Output: 0

* * *

test system: Staphylococcus aureus MW2 delta-mecA (mecA-); test: normalized GFP fluorescence (growth of mecA- strain) (fraction of control range); higher = more growth of mecA- strain; conditions: compound concentration: 150 uM; cefoxitin: subinhibitory; fluorescent label: GFP
Where a name gives a salt, the structure may show the parent alone.
READOUT_KIND: normalized GFP fluorescence
Would you mind answering with just the numeric figure?

# normalized GFP fluorescence of CCOc1cc([C@@H](CS(C)(=O)=O)N2C(=O)c3cccc(NC(C)=O)c3C2=O)ccc1OC = 0.254

Looking up NC(=O)c1ncn([C@@H]2O[C@H](CO)[C@@H](O)[C@H]2O)c1N , I see its normalized GFP fluorescence listed as 0.547

Form: compound = NCCNCCNCCN ; normalized GFP fluorescence = 0.763

// CC(=O)O[C@]1(C(C)=O)CC[C@H]2[C@@H]3C[C@H](C)C4=CC(=O)CC[C@]4(C)[C@H]3CC[C@@]21C : normalized GFP fluorescence value = 0.145

normalized GFP fluorescence in this record for CC(=O)[C@@]1(O)CC[C@H]2[C@@H]3CCC4=CC(=O)CCC4=C3[C@@H](c3ccc(N(C)C)cc3)C[C@@]21C : 0.57

The recorded normalized GFP fluorescence for entry C[n+]1ccccc1/C=N/O equals 0.332

normalized GFP fluorescence in this record for Nc1nc(F)nc2c1ncn2[C@@H]1O[C@H](COP(=O)(O)O)[C@@H](O)[C@@H]1O : 0.362

Reported normalized GFP fluorescence of CNCC[C@H](Oc1cccc2ccccc12)c1cccs1 : -0.0294

Noted for CCCN[C@H]1CCc2nc(N)sc2C1 [Pramipexole dihydrochloride monohydrate] : its normalized GFP fluorescence reads 0.713

normalized GFP fluorescence for CC(C[N+](C)(C)C)OC(N)=O (stereo not given) is 0.554

// normalized GFP fluorescence value for CC12CC3CC(C)(C1)CC(N)(C3)C2 : 0.384

The measured normalized GFP fluorescence associated with CC(C)(C)C(=O)OCOP(=O)(COCCn1cnc2c(N)ncnc21)OCOC(=O)C(C)(C)C reads 0.38

Short answer for O=C1CCc2cc(OCCCCc3nnnn3C3CCCCC3)ccc2N1 : normalized GFP fluorescence was 0.533

For reference, reported normalized GFP fluorescence for CC(COc1ccccc1)N(CCCl)Cc1ccccc1 (stereo not given) stands at 0.632

Documented normalized GFP fluorescence of COC(=O)C1=C(C)NC(C)=C(C(=O)OC)C1c1ccccc1[N+](=O)[O-] : 0.0465

Noted for CC(C)NCC(O)COc1cccc2[nH]ccc12 (stereo not given) : its normalized GFP fluorescence reads 0.242

Lab note: measured normalized GFP fluorescence of Cn1nnc2c(C(N)=O)ncn2c1=O [Temozolomide] was 0.456

The compound identified as CC1=C(/C=C/C(C)=C/C=C/C(C)=C\C(=O)O)C(C)(C)CCC1 registered its normalized GFP fluorescence at 0.0743

// recorded normalized GFP fluorescence for CC(C)[N+]1(C)[C@@H]2CC[C@H]1C[C@@H](OC(=O)C(CO)c1ccccc1)C2 (stereo not given in full) : 0.206

The value of normalized GFP fluorescence measured for the compound CC(=O)[C@H]1CC[C@H]2[C@@H]3C[C@H](C)C4=CC(=O)CC[C@]4(C)[C@H]3[C@@H](O)C[C@]12C turned out to be 0.258
